- tested-system: T1, hIL-18 receptor (hIL-18Rα and hIL-18Rβ) (human, UniProt Q13478 19-541; O95256 20-599)
- T1 sequence (looked up) 1: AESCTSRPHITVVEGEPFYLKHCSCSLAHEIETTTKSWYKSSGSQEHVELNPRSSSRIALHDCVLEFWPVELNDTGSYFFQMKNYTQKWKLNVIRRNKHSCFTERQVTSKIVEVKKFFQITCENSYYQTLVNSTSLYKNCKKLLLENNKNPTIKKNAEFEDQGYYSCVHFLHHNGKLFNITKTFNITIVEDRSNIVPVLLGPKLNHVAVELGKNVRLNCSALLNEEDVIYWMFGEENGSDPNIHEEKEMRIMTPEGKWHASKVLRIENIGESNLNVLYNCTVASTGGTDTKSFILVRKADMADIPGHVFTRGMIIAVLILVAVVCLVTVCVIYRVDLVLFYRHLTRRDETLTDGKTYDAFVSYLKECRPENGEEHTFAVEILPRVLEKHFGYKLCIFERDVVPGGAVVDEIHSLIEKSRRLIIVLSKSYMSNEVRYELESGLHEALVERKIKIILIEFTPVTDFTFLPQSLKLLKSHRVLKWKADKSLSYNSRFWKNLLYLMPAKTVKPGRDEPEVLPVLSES
- T1 sequence (looked up) 2: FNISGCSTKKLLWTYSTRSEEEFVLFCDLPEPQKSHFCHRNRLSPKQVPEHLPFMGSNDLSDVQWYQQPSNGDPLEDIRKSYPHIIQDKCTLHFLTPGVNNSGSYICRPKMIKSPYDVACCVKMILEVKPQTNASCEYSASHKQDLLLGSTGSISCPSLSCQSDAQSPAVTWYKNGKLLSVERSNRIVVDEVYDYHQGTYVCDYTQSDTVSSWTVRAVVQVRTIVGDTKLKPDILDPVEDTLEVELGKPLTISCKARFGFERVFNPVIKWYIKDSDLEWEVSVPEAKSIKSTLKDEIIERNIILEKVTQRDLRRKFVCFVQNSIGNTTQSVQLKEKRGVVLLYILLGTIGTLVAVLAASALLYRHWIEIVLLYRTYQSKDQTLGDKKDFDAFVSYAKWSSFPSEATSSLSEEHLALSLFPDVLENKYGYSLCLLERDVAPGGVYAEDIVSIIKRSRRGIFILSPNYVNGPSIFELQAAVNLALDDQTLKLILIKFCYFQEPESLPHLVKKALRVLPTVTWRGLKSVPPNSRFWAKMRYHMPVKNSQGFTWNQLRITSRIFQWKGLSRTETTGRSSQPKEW
- assay-protocol: cell-based or functional assay
Assignment: determine reported EC50 (nM), hIL-18 reporter assay for the given binders.
Numbers only, in nM.

Look over these answered cases.
1. IL-18 variant polypeptide M33 (ligand) YFEKLHSKLSVIRNLNDQVLFIDQGNRPLFEDMTDSDCRDNAPRTIFIISMYKRSTHRGMAVTISVKCEKISTLSCENKIISFKEMNPPDNIKDTKSDIIFFQRSVPGHDNKMQFESSSYEGYFLACEKERDLFKLILKKEDELGDRSIMFTVQNED | 18.4
2. IL-18 variant polypeptide M15 (ligand) YFPKLRSKLSVIRNLNDQVLFIDQGNRPLFEDMTDSDCRDNAPRTIFIISMYKSSYTRGMAVTISVKCEKISTLSCENKIISFKEMNPPDGIKDTKSDIIFFQRSVPGHDNKMQFESSSYEGYFLACEKERDLFKLILKKEDELGDRSIMFTVQNED | 0.13
3. IL-18 variant polypeptide M21 (ligand) YFPKLRSKLSVIRNLNDQVLFIDQGNRPLFEDMTDSDCRDNAPRTIFIISMYKSSSTRGMAVTISVKCEKISTLSCENKIISFKEMNPPDGIKDTKSDIIFFQSSVPGHDNKMQFESSSYEGYFLACEKERDLFKLILKKEDELGDRSIMFTVQNED | 1.9

For every item in the list below, what is its measured EC50 (nM), hIL-18 reporter assay?
1. IL-18 variant polypeptide MM6 (ligand) YFAKLYSKLSVIRNLNDQVLFIDQGNRPLFEDMTDSDCRDNAPRTIFIISMYKRSSLRGMAVTISVKCEKISTLSCENKIISFKEMNPPDAIKDTKSDIIFFQRSVPGHDNKMQFESSSYEGYFLACEKERDLFKLILKKEDELGDRSIMFTVQNED
2. IL-18 variant polypeptide M9 (ligand) YFPKLRSKLSVIRNLNDQVLFIDQGNRPLFEDMTDSDCRDNAPRTIFIISMYKWSRARGMAVTISVKCEKISTLSCENKIISFKEMNPPDSIKDTKSDIIFFQSSVPGHDNKMQFESSSYEGYFLACEKERDLFKLILKKEDELGDRSIMFTVQNED
3. IL-18 variant polypeptide WM8 (ligand) YFPKLRSKLSVIRNLNDQVLFIDQGNRPLFEDMTDSDCRDNAPRTIFIISMYKDSQPRGMAVTISVKCEKISTLSCENKIISFKEMNPPDSIKDTKSDIIFFQRSVPGHDNKMQFESSSYEGYFLACEKERDLFKLILKKEDELGDRSIMFTVQNED

OUTPUT:
1. 1
2. 0.43
3. 7

Consider IL-18 variant polypeptide LM5 (ligand) YFGKLRSKLSVIRNLNDQVLFIDQGNRPLFEDMTDSDCRDNAPRTIFIISMYKWSSQRGMAVTISVKCEKISTLSCENKIISFKEMNPPDNIKDTKSDIIFFQRSVPGHDNKMQFESSSYEGYFLACEKERDLFKLILKKEDELGDRSIMFTVQNED . Its measured EC50 (nM), hIL-18 reporter assay is 0.13
